# Target Entity: T1, human DLL4 extracellular domain (human, UniProt Q9NR61 27-529)
# T1 construct: purified recombinant ECD; biotin-labelled or 6xHis-tagged depending on the assay; also called huDLL4 ECD; hu DLL4 ECD
# T1 sequence (Q9NR61 27-529 limits assumed): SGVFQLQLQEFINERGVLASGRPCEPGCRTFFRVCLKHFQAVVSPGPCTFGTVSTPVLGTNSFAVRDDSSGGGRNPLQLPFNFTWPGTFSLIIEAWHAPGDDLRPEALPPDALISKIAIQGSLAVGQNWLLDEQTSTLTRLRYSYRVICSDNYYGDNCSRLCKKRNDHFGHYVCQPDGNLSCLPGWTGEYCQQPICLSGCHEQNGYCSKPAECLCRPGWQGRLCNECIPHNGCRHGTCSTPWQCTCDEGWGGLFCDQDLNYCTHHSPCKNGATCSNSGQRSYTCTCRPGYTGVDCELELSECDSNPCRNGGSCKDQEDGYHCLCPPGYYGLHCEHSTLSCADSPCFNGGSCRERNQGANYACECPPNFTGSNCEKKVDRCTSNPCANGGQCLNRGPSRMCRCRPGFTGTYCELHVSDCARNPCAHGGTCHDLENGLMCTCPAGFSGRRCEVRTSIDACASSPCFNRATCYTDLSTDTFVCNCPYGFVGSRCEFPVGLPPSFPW
# Assay Notes: SPR (Biacore)
Endpoint Label: Kd
Answer format: value, then unit.

- Binder: "h1A11.C6 (antibody, V domains shown, also called h1A11.C6 VH / h1A11VL.1) VH: EVQLVESGGGLVQPGGSLRLSCAASGFTFRNFPMAWVRQAPGKGLEWVATISSSDGWPTYRDSVKGRFTISRDNAKSSLYLQMNSLRAEDTAVYYCSRGYYNSPFAYWGQGTLVTVSS VL: DIQMTQSPSSLSASVGDRVTITCRASEDIYSNLAWYQQKPGKAPKLLIYDTNNLADGVPSRFSGSGSGTDFTLTISSLQPEDFATYYCQQYNNYPPTFGQGTKLEIK"
  Kd: "40 pM"
- Binder: "h1A11.B4 (antibody, V domains shown, also called h1A11VH.1 / h1A11.B4 VL) VH: EVQLVESGGGLVQPGGSLRLSCAASGFTFSNFPMAWVRQAPGKGLEWVATISSSDGTTYYRDSVKGRFTISRDNAKNSLYLQMNSLRAEDTAVYYCARGYYNSPFAYWGQGTLVTVSS VL: DIQMTQSPSSLSASVGDRVTITCRASQDIYYNLAWYQQKPGKAPKLLIFDTNILADGVPSRFSGSGSGTDFTLTISSLQPEDFATYFCQQYDYVPPTFGQGTKLEIK"
  Kd: "5200 pM"
- Binder: "h1A11.F5 (antibody, V domains shown, also called h1A11.F5 VH / h1A11.E12 VL) VH: EVQLVESGGGLVQPGGSLRLSCAASGFTFRHFPMAWVRQAPGKGLEWVATISSSDAWPSYRDSVKGRFTISRDNAKNSLYLQMNSLRAEDTAVYYCARGYYNSPFAYWGQGTLVTVSS VL: DIQMTQSPSSLSASVGDRVTITCRASQEIYRNLAWYQQKPGKSPKLLIFDTSVLADGVPSRFSGSGSGTDSTLTISSLQPEDFATYYCQQYTYYPPTFGQGTKLEIK"
  Kd: "75 pM"
- Binder: "h1A11.A11 (antibody, V domains shown, also called h1A11.A11 VH / h1A11VL.1) VH: EVQLVESGGGLVQPGGSLRLSCAASGFTFRHFPMAWVRQAPGKGLEWVATISSSDDWPNYRDSVKGRFTISRDNAKSSLYLQMNSLRAEDTAVYYCSRGYYNSPFAYWGQGTLVTVSS VL: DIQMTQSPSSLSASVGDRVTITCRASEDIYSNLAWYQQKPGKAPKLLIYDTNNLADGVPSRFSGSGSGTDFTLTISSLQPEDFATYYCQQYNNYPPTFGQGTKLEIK"
  Kd: "150 pM"
- Binder: "h1A11.1 (antibody, V domains shown, humanized IgG; also called hu1A11.1; VH.1/VL.1 1A11) VH: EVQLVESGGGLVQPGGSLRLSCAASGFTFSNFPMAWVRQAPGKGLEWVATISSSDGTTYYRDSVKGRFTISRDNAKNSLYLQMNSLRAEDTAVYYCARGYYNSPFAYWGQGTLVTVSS VL: DIQMTQSPSSLSASVGDRVTITCRASEDIYSNLAWYQQKPGKAPKLLIYDTNNLADGVPSRFSGSGSGTDFTLTISSLQPEDFATYYCQQYNNYPPTFGQGTKLEIKR"
  Kd: "13000 pM"

Okay, here is my list. What is Kd for each of these?
1. h1A11.H2 (antibody, V domains shown, also called h1A11.H2 VH / h1A11.E12 VL) VH: EVQLVESGGGLVQPGGSLRLSCAASGFTFGNFPMSWVRQAPGKGLEWVASISSSDSWATIGDSVKGRFTISRDNAKNSLYLQMNSLRAEDTAVYYCARGYYNSPFAFWGQGTLVTVSS VL: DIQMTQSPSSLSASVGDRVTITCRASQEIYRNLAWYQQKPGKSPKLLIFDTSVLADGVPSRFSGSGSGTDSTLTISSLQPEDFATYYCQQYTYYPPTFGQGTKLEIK
2. h1A11.B5 (antibody, V domains shown, also called h1A11.B5 VH / h1A11.B5 VL) VH: EVQLVESGGGLVQPGGSLRLSCAASGFTFRYFPMSWVRQAPGKGLEWVASISGSDGWASYRDSVKGRFTISRDNAKNSLYLQMNSLRAEDTAVYYCARGYYNSPFASWGQGTLVTVSS VL: DIQMTQSPSSLSASVGDRVTITCRASQDIWNNLAWYQQKPGKSPKLLIFDTSYLADGVPSRFSGSGSGTDFTLTISSLQPEDFATYYCQQYDWYPPTFGQGTKLEIK
3. h1A11.G3 (antibody, V domains shown, also called h1A11.G3 VH / h1A11.E12 VL) VH: EVQLVESGGGLVQPGGSLRLSCAASGFTFRYFPMSWVRQAPGKGLEWVASISGSDGWASYRDSVKGRFTISRDNAKNSLYLQMNSLRAEDTAVYYCARGYYNSPFAYWGQGTLVTVSS VL: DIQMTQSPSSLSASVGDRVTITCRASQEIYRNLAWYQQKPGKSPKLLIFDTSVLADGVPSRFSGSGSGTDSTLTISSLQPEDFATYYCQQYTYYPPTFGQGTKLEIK
4. h1A11.A2 (antibody, V domains shown, also called h1A11VH.1 / h1A11.A2 VL) VH: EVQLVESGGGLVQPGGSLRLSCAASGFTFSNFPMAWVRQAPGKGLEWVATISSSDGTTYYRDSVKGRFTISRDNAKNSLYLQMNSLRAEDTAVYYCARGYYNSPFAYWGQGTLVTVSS VL: DIQMTQSPSSLSASVGDRVTITCRASQDIYINLAWYQQKPGKSPKLLIFDTNDLADGVPSRFSGSGSGTDFTLTISSLQPEDFATYYCQQYDYVPPTFGQGTKLEIK

Result:
1: 270 pM; 2: 1000 pM; 3: 87 pM; 4: 3000 pM
